- protocol.notes: Acute Toxicity
- setup.conditions: rat, in vivo, po, male Wistar rats
recorded.metric: LD50

INSERT INTO measurements (compound, value_observed) VALUES
  ('CCNC(=O)CCCSCc1nnnn1CC [Compound 17]', '> 500 mg/kg'),
  ('CCc1ccc(-n2nnnc2CSCCC(=O)N(CC)CC)cc1 [Compound 12]', '> 500 mg/kg'),
  ('CCN(C(=O)CCCCc1nnnn1-c1ccccc1)C1CCCCC1 [Compound 4]', '> 500 mg/kg'),
  ('CCn1nnnc1CSCCC(N)=O [Compound 19]', '> 500 mg/kg'),
  ('Cn1nnnc1SCCCC(=O)NC1CCCCC1 [Compound 6]', '> 500 mg/kg');

----------
- System: Stress Ulcer
- protocol.notes: Stress Ulcer
- Type: in vivo, male Wistar rats
- setup.conditions: oral, 1×10^-3 mole in 0.5% CMC, before restraint and water dipping at 23° C. for 7 hours
recorded.metric: Inhibitory ratio of stress ulcer

INSERT INTO measurements (smiles_str, value_observed) VALUES
  ('CCN(CC)C(=O)CCCCc1nnnn1-c1ccccc1', '+ (30 to less than 60%)'),
  ('CCN(CC)C(=O)CCCSc1nnnn1C', '++ (more than 60%)'),
  ('CC(C)N(C(=O)CCCCc1nnnn1-c1ccccc1)C1CCCCC1', '++ (more than 60%)'),
  ('CCCCNC(=O)CCCCc1nnnn1-c1ccccc1', '+ (30 to less than 60%)'),
  ('CCCCn1nnnc1CSCCC(=O)NCC', '++ (more than 60%)'),
  ('CCN(CC)C(=O)CCCCc1nnn[nH]1', '+ (30 to less than 60%)'),
  ('CCN(C(=O)CCCCc1nnnn1C)C1CCCCC1', '+ (30 to less than 60%)'),
  ('COc1ccc(NC(=O)CCCCc2nnnn2-c2ccccc2)cc1', '+ (30 to less than 60%)'),
  ('CCNC(=O)CCSCc1nnnn1-c1ccccc1', '+ (30 to less than 60%)'),
  ('CCN(CC)C(=O)CCSCc1nnnn1CC', '++ (more than 60%)'),
  ('CCCCCCNC(=O)CCCCc1nnnn1-c1ccccc1', '+ (30 to less than 60%)');

Entry source: patent US4663323A
